- TARGET ENTITY: Somatostatin receptor type 3 (Homo sapiens, UniProt P32745)
- Sequence (P32745 whole entry): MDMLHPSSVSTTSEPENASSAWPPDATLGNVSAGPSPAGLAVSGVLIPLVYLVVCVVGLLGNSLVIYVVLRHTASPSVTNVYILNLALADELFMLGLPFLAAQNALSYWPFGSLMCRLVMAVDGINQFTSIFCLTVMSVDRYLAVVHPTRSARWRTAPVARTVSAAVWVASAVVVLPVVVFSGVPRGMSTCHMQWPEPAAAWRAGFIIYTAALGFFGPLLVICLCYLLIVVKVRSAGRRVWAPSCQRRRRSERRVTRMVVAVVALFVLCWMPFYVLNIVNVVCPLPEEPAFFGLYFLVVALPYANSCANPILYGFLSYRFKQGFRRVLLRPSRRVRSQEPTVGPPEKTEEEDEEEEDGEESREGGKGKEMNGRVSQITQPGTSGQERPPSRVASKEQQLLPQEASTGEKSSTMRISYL
pEC50: −log10 of the molar value.
Hi, to clarify the labels: true (1) covers pEC50 from 7 upward, false (0) covers anything below 7.

In: Does Oc1ccc(-c2c[nH]c([C@H]3Cc4c([nH]c5ccccc45)[C@@H](C4CCOCC4)N3)n2)cc1 have a reported pEC50 of at least 7?
Out: true (1)

In: Quick check: does Clc1ccc(-c2c[nH]c([C@H]3Cc4c([nH]c5ccccc45)[C@@H](C4CCOCC4)N3)n2)nc1 have pEC50 greater than or equal to 7?
Out: false (0)

In: Quick check, pEC50 >= 7? c1ccc2c3c([nH]c2c1)[C@@H](C1CCOCC1)N[C@@H](c1nc(-c2ccsc2)c[nH]1)C3
Out: true (1)

In: Could you please find out whether FC(F)(F)c1ccc(-c2c[nH]c([C@H]3Cc4c([nH]c5ccccc45)[C@@H](C4CCOCC4)N3)n2)cc1 has pEC50 that meets 7 or exceeds it?
Out: false (0)

In: Kindly determine if pEC50 recorded for Fc1ccc(-c2c[nH]c([C@H]3Cc4c([nH]c5ccccc45)[C@@H](C4CCOCC4)N3)n2)c(F)c1 is above or exactly 7.
Out: true (1)

In: Please check the record FC(F)(F)Oc1ccc(-c2c[nH]c([C@H]3Cc4c([nH]c5ccccc45)[C@@H](C4CCOCC4)N3)n2)cc1 and state if its pEC50 is at or above 7.
Out: false (0)

In: # bool: pEC50 of Clc1ccc(-c2c[nH]c([C@H]3Cc4c([nH]c5ccccc45)[C@@H](C4CCOCC4)N3)n2)s1 >= 7
Out: false (0)

In: Does the reported pEC50 for c1ccc2c3c([nH]c2c1)[C@@H](C1CCOCC1)N[C@@H](c1nc(-c2csc4ccccc24)c[nH]1)C3 fall at or above the 7 mark?
Out: true (1)
